List of AC50 tested on Mu-type opioid receptor (Homo sapiens). Further: assay procedure not described here.
Sequence (P35372 whole entry): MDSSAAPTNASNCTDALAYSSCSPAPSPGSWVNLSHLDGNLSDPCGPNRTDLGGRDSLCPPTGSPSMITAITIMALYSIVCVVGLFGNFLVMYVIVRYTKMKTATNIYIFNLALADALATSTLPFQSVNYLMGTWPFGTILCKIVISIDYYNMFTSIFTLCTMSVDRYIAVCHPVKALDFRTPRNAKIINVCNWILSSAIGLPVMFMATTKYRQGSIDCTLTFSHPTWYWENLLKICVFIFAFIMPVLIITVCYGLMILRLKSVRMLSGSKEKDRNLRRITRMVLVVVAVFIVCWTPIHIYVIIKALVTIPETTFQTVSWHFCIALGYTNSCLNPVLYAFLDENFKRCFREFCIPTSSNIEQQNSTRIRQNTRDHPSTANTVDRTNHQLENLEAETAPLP

COMPOUND: Clc1cccc(Cl)c1N=C1NCCN1 [CLONIDINE]
EXPERIMENTAL SYSTEM: Mu-type opioid receptor (Homo sapiens); further: assay procedure not described here
AC50: > 30 µM

COMPOUND: C[C@]1(COc2ccc(N3CCC(Oc4ccc(OC(F)(F)F)cc4)CC3)cc2)Cn2cc([N+](=O)[O-])nc2O1
EXPERIMENTAL SYSTEM: Mu-type opioid receptor (Homo sapiens); further: assay procedure not described here
AC50: > 10 µM

COMPOUND: C[C@]12CC[C@H](O)CC1=CC[C@@H]1[C@@H]2CC[C@]2(C)C(c3cccnc3)=CC[C@@H]12 [ABIRATERONE]
EXPERIMENTAL SYSTEM: Mu-type opioid receptor (Homo sapiens); further: assay procedure not described here
AC50: > 30 µM

Could you now look at the following compound, please?
Value lookup for AC50; key = CC(=O)S[C@@H]1CC2=CC(=O)CC[C@]2(C)[C@H]2CC[C@@]3(C)[C@@H](CC[C@@]34CCC(=O)O4)[C@H]12 [SPIRONOLACTONE]
> 30 µM
